Provide the recorded pIC50 for the entries that follow.
- assay-target: PRMT5 (Homo sapiens)
- Sequence (O14744 whole entry, species assumed): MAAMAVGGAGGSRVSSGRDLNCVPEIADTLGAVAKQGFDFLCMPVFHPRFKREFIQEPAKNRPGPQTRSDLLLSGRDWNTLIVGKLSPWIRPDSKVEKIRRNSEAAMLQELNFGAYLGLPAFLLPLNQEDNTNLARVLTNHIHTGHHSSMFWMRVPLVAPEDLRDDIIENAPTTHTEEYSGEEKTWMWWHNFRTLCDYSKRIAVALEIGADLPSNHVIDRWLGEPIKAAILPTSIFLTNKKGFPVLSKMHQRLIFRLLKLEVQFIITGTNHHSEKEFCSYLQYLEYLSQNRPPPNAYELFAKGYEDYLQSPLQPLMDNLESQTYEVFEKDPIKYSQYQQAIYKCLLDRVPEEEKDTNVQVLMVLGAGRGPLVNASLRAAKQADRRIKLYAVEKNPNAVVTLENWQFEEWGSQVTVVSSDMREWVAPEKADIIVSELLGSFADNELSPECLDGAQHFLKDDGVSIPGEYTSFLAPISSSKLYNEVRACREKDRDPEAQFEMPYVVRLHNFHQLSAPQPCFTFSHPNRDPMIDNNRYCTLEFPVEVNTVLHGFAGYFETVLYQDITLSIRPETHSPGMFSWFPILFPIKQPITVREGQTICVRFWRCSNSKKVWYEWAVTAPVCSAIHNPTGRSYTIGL
- Sequence (Q9BQA1 whole entry partner, species assumed): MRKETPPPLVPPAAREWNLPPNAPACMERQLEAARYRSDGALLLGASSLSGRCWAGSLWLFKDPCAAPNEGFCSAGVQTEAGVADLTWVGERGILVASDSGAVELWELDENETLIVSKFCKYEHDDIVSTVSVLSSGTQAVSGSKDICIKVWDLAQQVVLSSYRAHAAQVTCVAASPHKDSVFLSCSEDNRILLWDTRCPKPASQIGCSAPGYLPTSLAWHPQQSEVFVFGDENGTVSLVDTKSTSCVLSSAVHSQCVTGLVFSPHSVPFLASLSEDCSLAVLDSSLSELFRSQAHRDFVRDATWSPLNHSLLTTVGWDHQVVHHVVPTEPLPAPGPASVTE
- procedure-details: PRMT5 IC50 (Table 2; no method described)
- Type: biochemical
- run-conditions: read-out: PRMT5_ IC50
Answers are plain numbers, as −log10 of the molar value.

Here is how some compounds turned out for pIC50.
CC(C)n1ncc2c(C(=O)N[C@@H](C)c3ccccc3)cc(-c3cccc(CNCCN)c3)nc21
4.45
NCCNCc1ccc(-c2ccc3ncn(Cc4cccc(C(=O)N5CCCC5)c4)c3c2)cc1
6.90
CC(C)n1ncc2c(C(=O)N(C)Cc3cccc(F)c3)cc(-c3cccc(CN(C)CCN)c3)nc21
5.38

Respectfully, I request pIC50 for each entry included below.
1. COc1ccc(-n2cnc3ccc(-c4ccc(CNCCN)cc4)cc32)cc1
2. CC(C)n1ncc2c(C(=O)N[C@@H](C)c3ccccc3)cc(-c3cccc(CN(C)CCN)c3)nc21
3. NCCNCc1ccc(-c2ccc3ncn(Cc4cccc(C(=O)Nc5ccccc5)c4)c3c2)cc1

[6.38, 4.30, 7.28]

Give one value of pIC50 per listed compound.
1. COc1cccc(Cn2cnc3ccc(-c4ccc(CNCCN)cc4)cc32)c1
2. CNCCN(C)Cc1cccc(-c2cc(C(=O)N(C)Cc3ccccn3)c3cnn(C(C)C)c3n2)c1

6.90
4.47

====

Task for the reader: assign each of the following compounds its reported IC50.
- assay-target: Human CARM1 (PRMT4) (Homo sapiens, UniProt Q86X55)
- Sequence (Q86X55 2-585 isoform Q86X55-1): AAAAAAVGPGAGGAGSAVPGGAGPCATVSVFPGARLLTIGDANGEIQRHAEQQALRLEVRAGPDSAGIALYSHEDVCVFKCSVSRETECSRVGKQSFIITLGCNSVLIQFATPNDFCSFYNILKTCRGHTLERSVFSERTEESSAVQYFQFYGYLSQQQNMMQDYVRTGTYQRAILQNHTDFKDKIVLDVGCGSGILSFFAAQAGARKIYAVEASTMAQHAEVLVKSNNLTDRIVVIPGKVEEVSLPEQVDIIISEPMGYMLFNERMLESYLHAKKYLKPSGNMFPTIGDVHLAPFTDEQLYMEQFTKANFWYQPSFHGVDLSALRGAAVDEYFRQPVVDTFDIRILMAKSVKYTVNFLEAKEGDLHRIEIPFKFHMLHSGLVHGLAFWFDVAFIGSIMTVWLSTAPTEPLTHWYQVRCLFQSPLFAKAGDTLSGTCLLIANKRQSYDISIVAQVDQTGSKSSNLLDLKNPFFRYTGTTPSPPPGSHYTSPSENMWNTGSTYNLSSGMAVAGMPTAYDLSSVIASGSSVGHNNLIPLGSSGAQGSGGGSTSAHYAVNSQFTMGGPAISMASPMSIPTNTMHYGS
One number for each entry, in nM.

Consider the worked cases shown below.
CNCCN(C)Cc1cccc(-c2nc(NCc3ccncc3)c3cnn(C4CC4)c3n2)c1
19.5
CNCCN(C)Cc1cccc(-c2cc(C(=O)NC(C)c3ccccc3)c3cnn(C4CCOCC4)c3n2)c1 (centres unmarked)
55.5
COc1cccc(-n2cnc3ccc(-c4ccc(CNCCN)cc4)cc32)c1
10600

Each of the following entries comes with a recorded value; kindly state IC50 for each.
1. COc1cccc(Cc2nc3ccc(-c4ccc(CNCCN)cc4)cc3n2C(C)C)c1
2. CNCCN(C)Cc1cccc(-c2cc(C(=O)N(C)CC(F)(F)F)c3cnn(C(C)C)c3n2)c1
3. CNCCN(C)Cc1cccc(-c2ccc3c(c2)ncn3C(C)C)c1

1. 4920
2. 283
3. 15800

Look up IC50 for the entries below, preserving their order.
1. CNCCN(C)Cc1cccc(-c2cc(C(=O)NCCCCC(=O)NCC3CCOCC3)c3cnn(C(C)C)c3n2)c1
2. CC(C)n1ncc2c(C(=O)N3CCC3)cc(-c3cccc(CN(C)CCN)c3)nc21

18
18.2
